Reference source: PubChem BioAssay (NCI)

system: HCT-116 colon; assay: NCI-60 one-dose screen, 48 h (100 = growth as untreated, 0 = no growth, -100 = all killed); conditions: 10 µM unless noted
This is part of a sample that, as a whole, favours compounds with a hit. Of some 83,000 tested, about 20% had one in any assay.
Each entry falls in a class defined on growth; the bands are low bracket = under 30%, middle bracket = from 30% up to 90%, high bracket = 90% and over

Please review the following examples before continuing.
CCN1C(=O)/C(=c2\sc3n(c2=O)NC2C(N=3)N(CC)C(=O)N2CC)c2ccccc21 (stereo unspecified) = low bracket
COc1cc(-c2cc(=O)oc3cc(O)ccc23)c(OC)c2c1OCO2 = high bracket
COc1cc(Nc2cc(O)c3c(=O)cc(-c4ccccc4)oc3c2)cc(OC)c1 = low bracket
O=C1NC(=S)NC(=O)C1=Cc1cccc(C=C2C(=O)NC(=S)NC2=O)c1 = low bracket

Consider the additional compound presented here.
Class? Entry: Cc1ccccc1CNc1ccc(N2CCOCC2)cc1
high bracket
